target-under-test: human full-length recombinant PKC βII (Homo sapiens)
Construct: Active human full-length recombinant PKC βII; purchased Invitrogen GmbH, Darmstadt, Germany
Sequence (P05771 1-673 isoform P05771-2): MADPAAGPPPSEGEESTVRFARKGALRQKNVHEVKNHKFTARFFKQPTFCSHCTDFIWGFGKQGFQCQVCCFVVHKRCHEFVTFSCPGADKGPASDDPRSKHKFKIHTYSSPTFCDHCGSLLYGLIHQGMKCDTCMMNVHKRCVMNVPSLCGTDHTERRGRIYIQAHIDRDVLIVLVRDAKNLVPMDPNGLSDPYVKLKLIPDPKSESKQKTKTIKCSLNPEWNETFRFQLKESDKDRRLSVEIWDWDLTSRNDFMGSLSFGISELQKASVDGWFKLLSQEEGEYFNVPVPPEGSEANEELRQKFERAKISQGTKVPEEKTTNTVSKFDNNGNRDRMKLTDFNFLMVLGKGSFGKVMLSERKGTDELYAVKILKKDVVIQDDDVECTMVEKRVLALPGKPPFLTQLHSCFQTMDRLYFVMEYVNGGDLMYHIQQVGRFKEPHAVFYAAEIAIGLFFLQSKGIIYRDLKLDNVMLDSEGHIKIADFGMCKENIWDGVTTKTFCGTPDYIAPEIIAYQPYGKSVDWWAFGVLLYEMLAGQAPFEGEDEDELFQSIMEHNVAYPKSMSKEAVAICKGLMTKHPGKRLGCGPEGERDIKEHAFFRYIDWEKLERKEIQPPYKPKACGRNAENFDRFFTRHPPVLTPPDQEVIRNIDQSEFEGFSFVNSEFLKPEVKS
assay-comment: Determination of PKC βII inhibition (Caliper mobility-shift kinase assay, Fluorescein-RFARKGSLRQKNV peptide substrate)
Format: biochemical
measurement-parameters: example compounds at a final concentration of 1.14 μM (±0.15 μM)
observable: inhibition at 1.14 µM (%)
All answers are understood in %, so give the number only.

| molecule | measurement-unit | inhibition at 1.14 µM |
| --- | --- | --- |
| Cc1n[nH]c2nc(-c3ccc(O)cc3)cc(C(=O)NC(CN3CCCC3)c3ccccc3)c12 (centres unmarked) [Example 377] | % | 69 |

Report measured inhibition at 1.14 µM on human full-length recombinant PKC βII (Homo sapiens); entry: Cc1n[nH]c2nc(-c3ccc(O)cc3)cc(C(=O)N3CCNCC3c3cccc(F)c3F)c12 (centres unmarked) [Example 85] 98

Look up and report inhibition at 1.14 µM, with human full-length recombinant PKC βII (Homo sapiens) as system, for CCN1CCCC(NC(=O)c2cc(-c3ccc(O)c(F)c3)nc3[nH]nc(C)c23)C1 (centres unmarked) [Example 332] 63

Give inhibition at 1.14 µM for Cc1n[nH]c2nc(-c3ccc(O)cc3)cc(C(=O)N3CCN[C@@H](C(C)C)C3)c12 [Example 233] tested on human full-length recombinant PKC βII (Homo sapiens). 95

Return reported inhibition at 1.14 µM for target or system human full-length recombinant PKC βII (Homo sapiens), item Cc1n[nH]c2nc(-c3ccc(O)cc3)cc(C(=O)N3CCCC4(CNCCO4)C3)c12 (centres unmarked) [Example 262] . 59

GET inhibition at 1.14 µM where system = human full-length recombinant PKC βII (Homo sapiens) and item = Cc1n[nH]c2nc(-c3ccc(O)cc3F)cc(C(=O)N3CCC(C)(N)CC3)c12 [Example 418] 30
